MEASURED_TARGET: UniProtKB P22303
Sequence (P22303 32-614): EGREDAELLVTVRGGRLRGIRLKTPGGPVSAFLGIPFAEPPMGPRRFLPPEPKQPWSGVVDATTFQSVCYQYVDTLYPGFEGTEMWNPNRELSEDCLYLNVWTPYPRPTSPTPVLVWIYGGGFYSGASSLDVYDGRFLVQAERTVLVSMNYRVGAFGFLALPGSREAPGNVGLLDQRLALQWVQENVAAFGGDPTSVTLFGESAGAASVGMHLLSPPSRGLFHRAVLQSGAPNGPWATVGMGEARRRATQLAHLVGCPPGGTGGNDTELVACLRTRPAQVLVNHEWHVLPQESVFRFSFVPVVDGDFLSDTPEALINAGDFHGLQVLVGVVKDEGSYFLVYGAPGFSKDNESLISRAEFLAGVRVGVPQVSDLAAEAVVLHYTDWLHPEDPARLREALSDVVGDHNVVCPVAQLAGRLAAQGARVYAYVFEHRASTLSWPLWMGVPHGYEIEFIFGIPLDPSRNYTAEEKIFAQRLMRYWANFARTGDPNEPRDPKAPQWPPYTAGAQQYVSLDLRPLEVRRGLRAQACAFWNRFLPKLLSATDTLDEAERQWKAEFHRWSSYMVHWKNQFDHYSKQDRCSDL
MEASUREMENT_LABEL: IC50 (µM)
# value in µM; strip the unit string

Find the measured IC50: item COc1cc([C@H]2OC[C@H]3[C@@H]2CO[C@@H]3c2cc(OC)c(O[C@@H]3O[C@H](CO)[C@@H](O)[C@H](O)[C@H]3O)c(OC)c2)cc(OC)c1O [acanthoside B] , target or system UniProtKB P22303.
4.82
